MEASURED TARGET: T1, thermolysin-cleaved EBOV GP on Jurkat-GP cells (cleaved GP) (Zaire ebolavirus, Makona (GP1 core …, strain))
T1 chain 1: not shown
T1 chain 2: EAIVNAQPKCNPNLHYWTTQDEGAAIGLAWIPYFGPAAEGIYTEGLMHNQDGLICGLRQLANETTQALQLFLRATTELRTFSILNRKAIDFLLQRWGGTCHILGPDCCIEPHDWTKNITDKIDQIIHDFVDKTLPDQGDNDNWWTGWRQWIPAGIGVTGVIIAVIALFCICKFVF
QUANTITY KIND: binding result

binder="5.6.c2798 (antibody, V domains shown) VH: QVQLQESGPGLVKPSETLSLTCTVSGGSISPDYWTWIRQPPGKGLEWIGFIYYAGGTDYNPSLKSRVTMSIDTSKKQFFLKLNSVTAADTAVYYCASGVPEDNSQILYYYYGMDVWGPGTTVTVSS VL: QSVLTQPPSVSAAPGQKVTISCSGSSPNIGNNYVSWYQQLPGTAPKLLIYDNNKRPSGIPDRFSGSKSGTSATLGITGLQTGDEADYYCGTWDRSLSAYVFGTGTKVTVL" assay_result=binds
binder="5.6.c3236 (antibody, V domains shown) VH: QVQLLESGPGLVKPSETLSLTCAVSGGSVSSNTHFWSWIRQPPGKGLEWIGYTLSSGSTAYNPSLKSRVSLSVDTSKNHFSLKLTSVTAADTAVYYCAGTVIQGVVSFDWFDPWGQGTLVTVSS VL: DIQMTQSPSSLSASVGDRVTITCRASQSINSYLNWYQQRPGKAPKLLIYTTSNLQSGVPSRFSGSGSGTDFTLTISSLQPEDFATYYCQQSYSTPLTFGGGTKVEIK" assay_result=binds
binder="5.6.c3023 (antibody, V domains shown) VH: QVQLVESGGGVVQPGRSLRLSCAASGFTFRTYGLHWVRQAPGKGLEWVAFISNDGSSKYNVDSVKGRFTISRDNPKNTLYLQMNSLRTEDTAVYYCAKDTISVAIYGHFDTWGQGTLVTVSS VL: DVVMTQSPLSLPVTLGQPASISCRSSQSLVKSDGNTYLNWFQQRPGQSPRRLIYKVSTRDTGVPDRFSGSGSGTDFTLKISRVEAEDVAVYYCMQATHWPITFGGGTTVEIK" assay_result=binds
